- assayed-target: STK32A (human) (UniProt Q8WU08)
- Sequence (Q8WU08 whole entry, looked up): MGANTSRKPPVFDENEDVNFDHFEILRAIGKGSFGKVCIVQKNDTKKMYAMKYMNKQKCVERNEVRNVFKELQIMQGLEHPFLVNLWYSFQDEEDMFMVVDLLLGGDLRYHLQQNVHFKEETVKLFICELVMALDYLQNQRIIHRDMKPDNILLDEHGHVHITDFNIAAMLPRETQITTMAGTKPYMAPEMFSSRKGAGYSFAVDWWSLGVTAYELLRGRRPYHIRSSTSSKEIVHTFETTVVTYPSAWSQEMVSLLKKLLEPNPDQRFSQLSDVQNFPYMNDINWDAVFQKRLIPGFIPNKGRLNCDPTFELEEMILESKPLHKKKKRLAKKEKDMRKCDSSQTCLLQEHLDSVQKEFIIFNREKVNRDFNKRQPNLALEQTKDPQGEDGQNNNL
- protocol-details: KINOMEscan competition binding
- settings: compound 10.0 µM
observation-type: kinase still bound, per cent of control

NC(=O)Nc1cc(-c2cccc(F)c2)sc1C(=O)N[C@@H]1CCCNC1 :: 1%
N#CCNC(=O)c1ccc(-c2ccnc(Nc3ccc(N4CCOCC4)cc3)n2)cc1 :: 100%

Supply measured kinase still bound, per cent of control of O=C1NC(=O)/C(=C/c2ccc3nccc(-c4ccncc4)c3c2)S1 in your reply.
83%

Supply measured kinase still bound, per cent of control of C=CC(=O)Nc1cc(-n2c(=O)ccc3cnc4ccc(-c5cn[nH]c5)cc4c32)ccc1C in your reply.
100%

Supply measured kinase still bound, per cent of control of CN(C)C/C=C/C(=O)Nc1ccc(C(=O)Nc2cccc(Nc3nccc(-c4cccnc4)n3)c2)cc1 in your reply.
95%

Supply measured kinase still bound, per cent of control of CCN1CCN(C(=O)Cc2ccc(Nc3ncc(F)c(Nc4ccc(C(=O)Nc5ccccc5Cl)cc4)n3)cc2)CC1 in your reply.
100%

Supply measured kinase still bound, per cent of control of O=c1cc(N2CCOCC2)oc2c(-c3cccc4c3sc3ccccc34)cccc12 in your reply.
100%

Supply measured kinase still bound, per cent of control of CNC(=O)c1cc(Oc2ccc(NC(=O)Nc3ccc(Cl)c(C(F)(F)F)c3)cc2)ccn1 in your reply.
100%

Supply measured kinase still bound, per cent of control of COc1cc(C(=O)N2CCC(N3CCN(C)CC3)CC2)ccc1Nc1ncc2c(n1)N(C)c1ccccc1C(=O)N2C in your reply.
100%

====

The reader will find reported kinase still bound, per cent of control values listed item by item below.
- assayed-target: RPS6KA2 KD1 (human) (UniProt Q15349)
- Sequence (Q15349 whole entry, looked up): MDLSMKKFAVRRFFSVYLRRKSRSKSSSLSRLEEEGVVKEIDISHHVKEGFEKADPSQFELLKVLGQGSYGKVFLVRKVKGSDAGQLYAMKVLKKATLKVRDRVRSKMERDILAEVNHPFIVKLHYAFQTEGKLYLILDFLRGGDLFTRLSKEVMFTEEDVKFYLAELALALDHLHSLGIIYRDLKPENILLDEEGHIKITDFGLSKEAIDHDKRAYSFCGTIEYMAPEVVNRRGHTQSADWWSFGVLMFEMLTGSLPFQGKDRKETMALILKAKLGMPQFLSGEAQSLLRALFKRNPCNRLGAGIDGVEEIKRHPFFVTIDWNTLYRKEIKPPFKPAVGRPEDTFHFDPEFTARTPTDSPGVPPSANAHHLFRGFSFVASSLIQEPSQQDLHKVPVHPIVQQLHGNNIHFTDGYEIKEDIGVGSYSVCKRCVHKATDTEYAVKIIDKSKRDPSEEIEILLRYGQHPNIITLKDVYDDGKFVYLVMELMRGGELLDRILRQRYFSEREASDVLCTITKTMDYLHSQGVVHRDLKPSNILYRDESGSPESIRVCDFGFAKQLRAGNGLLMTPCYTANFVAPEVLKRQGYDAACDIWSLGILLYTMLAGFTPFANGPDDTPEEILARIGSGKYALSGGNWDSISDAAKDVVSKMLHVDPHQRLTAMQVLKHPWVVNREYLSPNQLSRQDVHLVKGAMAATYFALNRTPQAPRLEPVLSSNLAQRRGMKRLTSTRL
- protocol-details: KINOMEscan competition binding
- settings: compound 10.0 µM
The response must be a number in % with no trailing unit.

A selection of reference data follows.
CCN(CC)CCCCNc1ncc2c(n1)N(C)C(=O)N(c1c(Cl)c(OC)cc(OC)c1Cl)C2 :: 100
C=CC(=O)Nc1ccc(CN(C(=O)Nc2c(Cl)c(OC)cc(OC)c2Cl)c2cc(Nc3ccc(N4CCN(C)CC4)cc3)ncn2)cc1 :: 100

Next, consider the following molecule.
Supply measured kinase still bound, per cent of control of C=CC(=O)Nc1cc(-n2c(=O)ccc3cnc4ccc(-c5cn[nH]c5)cc4c32)ccc1C in your reply.
72

====

The reader will find reported kinase still bound, per cent of control values listed item by item below.
- assayed-target: HIPK3 (human) (UniProt Q9H422)
- Sequence (Q9H422 whole entry, looked up): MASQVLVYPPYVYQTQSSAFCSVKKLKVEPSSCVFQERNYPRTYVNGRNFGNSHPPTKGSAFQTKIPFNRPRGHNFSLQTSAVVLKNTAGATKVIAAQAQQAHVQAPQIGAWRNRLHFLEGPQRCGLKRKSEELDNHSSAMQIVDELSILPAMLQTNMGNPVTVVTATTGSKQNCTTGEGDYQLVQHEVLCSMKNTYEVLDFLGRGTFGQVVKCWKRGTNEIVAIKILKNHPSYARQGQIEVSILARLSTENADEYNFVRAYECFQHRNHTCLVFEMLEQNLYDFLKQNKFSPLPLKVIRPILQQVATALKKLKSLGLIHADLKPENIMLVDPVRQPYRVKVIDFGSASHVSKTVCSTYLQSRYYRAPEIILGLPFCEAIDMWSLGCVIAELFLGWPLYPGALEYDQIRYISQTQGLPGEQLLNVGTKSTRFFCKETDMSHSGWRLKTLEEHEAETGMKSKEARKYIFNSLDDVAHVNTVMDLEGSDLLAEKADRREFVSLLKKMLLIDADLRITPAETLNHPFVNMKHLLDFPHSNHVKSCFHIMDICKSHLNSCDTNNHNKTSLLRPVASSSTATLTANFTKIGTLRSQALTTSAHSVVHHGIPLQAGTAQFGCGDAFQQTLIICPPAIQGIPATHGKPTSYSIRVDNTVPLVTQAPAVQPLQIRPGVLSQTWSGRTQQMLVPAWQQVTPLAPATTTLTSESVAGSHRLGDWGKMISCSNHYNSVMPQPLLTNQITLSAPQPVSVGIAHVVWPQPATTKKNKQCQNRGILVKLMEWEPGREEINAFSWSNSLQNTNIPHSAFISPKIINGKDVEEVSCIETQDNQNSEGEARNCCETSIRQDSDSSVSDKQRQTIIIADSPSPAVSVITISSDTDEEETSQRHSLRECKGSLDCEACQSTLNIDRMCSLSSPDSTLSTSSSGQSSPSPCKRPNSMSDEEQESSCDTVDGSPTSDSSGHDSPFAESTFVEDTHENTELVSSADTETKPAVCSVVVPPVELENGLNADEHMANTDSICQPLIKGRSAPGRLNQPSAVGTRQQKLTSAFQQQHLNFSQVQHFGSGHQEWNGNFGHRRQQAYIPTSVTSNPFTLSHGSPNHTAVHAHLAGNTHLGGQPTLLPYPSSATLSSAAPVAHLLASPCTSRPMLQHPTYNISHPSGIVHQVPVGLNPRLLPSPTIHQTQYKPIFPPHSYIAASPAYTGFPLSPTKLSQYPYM
- protocol-details: KINOMEscan competition binding
- settings: compound 10.0 µM
The response must be a number in % with no trailing unit.

A selection of reference data follows.
C=CC(=O)Nc1cc(-n2c(=O)ccc3cnc4ccc(-c5cn[nH]c5)cc4c32)ccc1C :: 48
COc1cc(N2CCN(C)CC2)ccc1Nc1ncc2c(n1)N(C)c1ccccc1C(=O)N2C :: 100
COc1ccc(N(C(=O)Oc2c(C)cccc2C)c2ccnc(Nc3ccc(N4CCN(C)CC4)cc3)n2)c(OC)c1 :: 91

Supply measured kinase still bound, per cent of control of COc1cc2ncnc(-n3nc(-c4ccccn4)nc3N)c2cc1OC in your reply.
0

====

- assayed-target: EPHA4 (human) (UniProt P54764)
- Sequence (P54764 whole entry, looked up): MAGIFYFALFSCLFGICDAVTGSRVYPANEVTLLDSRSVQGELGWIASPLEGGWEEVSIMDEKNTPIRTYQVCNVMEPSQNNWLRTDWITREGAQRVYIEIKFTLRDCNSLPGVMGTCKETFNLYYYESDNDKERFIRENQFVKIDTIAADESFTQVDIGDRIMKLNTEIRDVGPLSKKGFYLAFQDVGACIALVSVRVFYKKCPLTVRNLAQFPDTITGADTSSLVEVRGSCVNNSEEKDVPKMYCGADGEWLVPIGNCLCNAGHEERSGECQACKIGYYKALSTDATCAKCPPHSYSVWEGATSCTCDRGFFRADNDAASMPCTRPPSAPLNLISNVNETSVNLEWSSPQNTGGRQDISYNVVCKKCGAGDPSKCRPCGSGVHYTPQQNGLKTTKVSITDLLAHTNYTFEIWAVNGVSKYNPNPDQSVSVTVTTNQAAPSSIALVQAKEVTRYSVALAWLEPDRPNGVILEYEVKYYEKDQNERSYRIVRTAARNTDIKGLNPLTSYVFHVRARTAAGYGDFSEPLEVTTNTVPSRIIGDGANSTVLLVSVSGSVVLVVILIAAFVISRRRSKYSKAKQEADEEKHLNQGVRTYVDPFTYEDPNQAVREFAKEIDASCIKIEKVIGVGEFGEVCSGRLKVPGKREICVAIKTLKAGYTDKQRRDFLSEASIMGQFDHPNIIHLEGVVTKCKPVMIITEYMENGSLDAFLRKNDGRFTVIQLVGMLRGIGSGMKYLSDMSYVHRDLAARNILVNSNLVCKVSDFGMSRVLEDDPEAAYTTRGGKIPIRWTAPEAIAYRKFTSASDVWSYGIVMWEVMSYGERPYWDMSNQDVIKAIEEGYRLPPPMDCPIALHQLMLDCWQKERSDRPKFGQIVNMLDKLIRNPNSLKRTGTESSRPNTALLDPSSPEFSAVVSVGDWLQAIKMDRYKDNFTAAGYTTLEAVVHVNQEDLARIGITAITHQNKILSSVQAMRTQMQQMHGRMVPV
- protocol-details: KINOMEscan competition binding
- settings: compound 10.0 µM
Binary call on kinase still bound, per cent of control with cut-off 40%: strictly below means yes, and equality or higher means no.

# count of solved cases: 4
NC(=O)Nc1cc(-c2cccc(F)c2)sc1C(=O)N[C@@H]1CCCNC1 :: yes
CN(C)C/C=C/C(=O)Nc1ccc(C(=O)Nc2cccc(Nc3nccc(-c4cccnc4)n3)c2)cc1 :: no
CNC(=O)c1cc(Oc2ccc(NC(=O)Nc3ccc(Cl)c(C(F)(F)F)c3)cc2)ccn1 :: no
COc1cc2ncnc(-n3nc(-c4ccccn4)nc3N)c2cc1OC :: yes

Would you kindly look at the next entry?
Does this compound meet the criterion kinase still bound, per cent of control < 40%? C=CC(=O)Nc1cc(-n2c(=O)ccc3cnc4ccc(-c5cn[nH]c5)cc4c32)ccc1C
no
